Hey, just so you know, these numbers are from the RNAGym collection of RNA variant scans (doi:10.1093/molbev/msab373).

B1: Azoarcus group I ribozyme (parent)
chain: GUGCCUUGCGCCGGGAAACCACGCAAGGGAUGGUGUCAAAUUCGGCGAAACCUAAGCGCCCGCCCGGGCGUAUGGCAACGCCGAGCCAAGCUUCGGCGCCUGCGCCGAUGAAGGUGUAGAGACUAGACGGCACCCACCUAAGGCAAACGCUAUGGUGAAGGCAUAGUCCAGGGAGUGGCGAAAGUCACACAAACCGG

Variants of: B1
Assay: reverse-splicing fitness (ratio to wild type); higher = more active; in vitro selection; Mg2+ level not given
What reverse-splicing fitness was measured for each of the following?
Kindly provide the number alone.

Param item = C82G A120U C150U C169U U176A ; retrieve measured reverse-splicing fitness.
0.00509

Param item = C82G A111G A145C C150G U176A ; retrieve measured reverse-splicing fitness.
0.0197

Param item = C82G A111U A145G C150G C169A U176C ; retrieve measured reverse-splicing fitness.
0.0129

Param item = C82G A111G A120U A145G C150A C169U ; retrieve measured reverse-splicing fitness.
0.00426

Param item = C82U A111U A120C A145C C150G ; retrieve measured reverse-splicing fitness.
0.00726

Param item = C82A A111G A120C A145C C169A U176G ; retrieve measured reverse-splicing fitness.
0.0053

Param item = C82G A111U A120C A145U C150U C169G U176C ; retrieve measured reverse-splicing fitness.
0.0194

Param item = A111C A120G C150A U176A ; retrieve measured reverse-splicing fitness.
0.0175

Param item = C82A A111C C150U U176G ; retrieve measured reverse-splicing fitness.
0.0134

Param item = C82G A111U A120U A145G C150A C169U ; retrieve measured reverse-splicing fitness.
0.00464

Param item = C82U A111C A120C A145U ; retrieve measured reverse-splicing fitness.
0.028

Param item = C82U A120G U176A ; retrieve measured reverse-splicing fitness.
0.0132

Param item = A111C A120U A145G C169G ; retrieve measured reverse-splicing fitness.
0.0583

Param item = A111C A120G C150U U176G ; retrieve measured reverse-splicing fitness.
0.00599

Param item = A111C A120U A145G C150U U176G ; retrieve measured reverse-splicing fitness.
0.0303

Param item = A111C A120C C150U U176G ; retrieve measured reverse-splicing fitness.
0.0275

Param item = C82U A111G C150A U176C ; retrieve measured reverse-splicing fitness.
0.0361

Param item = C82U A111C A120G A145C C150U C169A U176A ; retrieve measured reverse-splicing fitness.
0.00813

Param item = A120G A145C C169U ; retrieve measured reverse-splicing fitness.
0.435

Param item = A120U A145C C150A C169U ; retrieve measured reverse-splicing fitness.
0.0192

Param item = C82U A111C A145C C150G C169U ; retrieve measured reverse-splicing fitness.
0.00936

Param item = C82U A111U A120G A145C C169U U176A ; retrieve measured reverse-splicing fitness.
0.0194

Param item = C82U A120C C150U C169A U176A ; retrieve measured reverse-splicing fitness.
0.0158

Param item = C82G A111G A145G C169G U176A ; retrieve measured reverse-splicing fitness.
0.016

Param item = C82A A111G A120C A145G C169G U176G ; retrieve measured reverse-splicing fitness.
0.0054

Param item = C82U A111C C150A U176A ; retrieve measured reverse-splicing fitness.
0.0143

Param item = C82G A111C A120U A145G C150A C169G U176A ; retrieve measured reverse-splicing fitness.
0.00649

Param item = C82U A120U A145U C150U ; retrieve measured reverse-splicing fitness.
0.106

Param item = C82G A111U A145U C150A ; retrieve measured reverse-splicing fitness.
0.0284

Param item = C82U A111U A120G A145C C150U U176G ; retrieve measured reverse-splicing fitness.
0.00412

Param item = C82U A111U A120U A145G C169G ; retrieve measured reverse-splicing fitness.
0.00363

Param item = A111G A120C A145C C150A C169G ; retrieve measured reverse-splicing fitness.
0.00815

Param item = C82A A111U A120C A145C C150G C169U ; retrieve measured reverse-splicing fitness.
0.00963

Param item = C82A A111G A120C A145C C169G U176C ; retrieve measured reverse-splicing fitness.
0.0238

Param item = C82G A111C A120G A145C C150U C169A U176C ; retrieve measured reverse-splicing fitness.
0.00666

Param item = C82U A111G A120U C150A C169A U176A ; retrieve measured reverse-splicing fitness.
0.00374

Param item = C82A A111U A145G C150U C169A U176C ; retrieve measured reverse-splicing fitness.
0.0162

Param item = C82A A111U A120G A145C C150A C169U U176G ; retrieve measured reverse-splicing fitness.
0.0059

Param item = C82A A111C A120U C150A C169U U176G ; retrieve measured reverse-splicing fitness.
0.00284

Param item = A111G A120C A145U C150U C169A U176G ; retrieve measured reverse-splicing fitness.
0.00393

Param item = C82G A111C A120G A145C C150A C169A U176C ; retrieve measured reverse-splicing fitness.
0.00779

Param item = C82A A111C A120U A145C C150A C169U ; retrieve measured reverse-splicing fitness.
0.00355

Param item = A111G A120G A145U C150U C169G U176G ; retrieve measured reverse-splicing fitness.
0.00556

Param item = C82G A120C A145U C169A U176A ; retrieve measured reverse-splicing fitness.
0.0121

Param item = C82G A111G A120G A145G C150A C169U U176C ; retrieve measured reverse-splicing fitness.
0.0177

Param item = C82U A111C A120C A145C C150A C169A U176A ; retrieve measured reverse-splicing fitness.
0.0113

Param item = C82U A111C A120C A145C C150G ; retrieve measured reverse-splicing fitness.
0.00813

Param item = A145U C150A C169G U176C ; retrieve measured reverse-splicing fitness.
0.0285

Param item = A111U A120U A145U C169A U176C ; retrieve measured reverse-splicing fitness.
0.00283

Param item = C82U A120C A145U C150G C169G U176A ; retrieve measured reverse-splicing fitness.
0.00652

Param item = A111G A145G C150A C169G U176A ; retrieve measured reverse-splicing fitness.
0.0234

Param item = C82A A111G A120G C150U U176C ; retrieve measured reverse-splicing fitness.
0.0156

Param item = A111G A120U A145U C150U C169A U176C ; retrieve measured reverse-splicing fitness.
0.0026

Param item = C82U A111U A120G A145U C150A C169G U176G ; retrieve measured reverse-splicing fitness.
0.0044

Param item = C82G A111U A120G A145G C150G C169U ; retrieve measured reverse-splicing fitness.
0.00909

Param item = C82A A120C A145C C169G U176C ; retrieve measured reverse-splicing fitness.
0.0239

Param item = A111U A145U C169A U176A ; retrieve measured reverse-splicing fitness.
0.0113

Param item = A111G A120U A145C C150G U176C ; retrieve measured reverse-splicing fitness.
0.0153

Param item = C82U A111C A145U C150G C169U U176C ; retrieve measured reverse-splicing fitness.
0.0119

Param item = A111C A120G C150A C169A ; retrieve measured reverse-splicing fitness.
0.0171

Param item = C82U A111G A120U C169A U176C ; retrieve measured reverse-splicing fitness.
0.00211

Param item = C82U A111U A120C C150G C169U U176G ; retrieve measured reverse-splicing fitness.
0.00538

Param item = C82G A111G A120C C150U C169A U176C ; retrieve measured reverse-splicing fitness.
0.0182

Param item = C82A A111C A120U C150G U176C ; retrieve measured reverse-splicing fitness.
0.00623

Param item = C82A A120G C169G U176C ; retrieve measured reverse-splicing fitness.
0.0274

Param item = C82U A120G A145C C150A C169A U176G ; retrieve measured reverse-splicing fitness.
0.00326

Param item = C150A ; retrieve measured reverse-splicing fitness.
0.484

Param item = C82A A120C C150G C169U U176G ; retrieve measured reverse-splicing fitness.
0.00629

Param item = C82G A120C C150G ; retrieve measured reverse-splicing fitness.
0.0159

Param item = C82U A111C A120U A145U C150U C169U ; retrieve measured reverse-splicing fitness.
0.0037

Param item = A111G A120C A145C C150U C169U U176G ; retrieve measured reverse-splicing fitness.
0.00415

Param item = C82G A120U A145C C150G C169G U176A ; retrieve measured reverse-splicing fitness.
0.00247

Param item = C82U A111G A145G C150G U176C ; retrieve measured reverse-splicing fitness.
0.0206

Param item = C82G A111U A120G A145G ; retrieve measured reverse-splicing fitness.
0.0151

Param item = C82U A111U A120G A145U C150A C169G U176A ; retrieve measured reverse-splicing fitness.
0.0132

Param item = C82A A111U A120U C150G C169U ; retrieve measured reverse-splicing fitness.
0.00659

Param item = C82G C150G C169U ; retrieve measured reverse-splicing fitness.
0.00971

Param item = C82G A111G A120C A145G C150A C169A U176G ; retrieve measured reverse-splicing fitness.
0.00804

Param item = A111G A120G A145U C150A C169A U176C ; retrieve measured reverse-splicing fitness.
0.015

Param item = C82G A111U A120G A145U C150A C169A U176A ; retrieve measured reverse-splicing fitness.
0.0161

Param item = C82A A111G A145C C150U C169U U176A ; retrieve measured reverse-splicing fitness.
0.0126

Param item = A120C A145U C169G ; retrieve measured reverse-splicing fitness.
0.0257

Param item = C82G A111C A120G C169A ; retrieve measured reverse-splicing fitness.
0.0107

Param item = C82A A120G C150A C169G U176G ; retrieve measured reverse-splicing fitness.
0.00524

Param item = A111C A120G A145U C169G U176A ; retrieve measured reverse-splicing fitness.
0.0277

Param item = A120C A145C C150G C169U U176G ; retrieve measured reverse-splicing fitness.
0.0043

Param item = A111C A120U A145U C150G C169A U176A ; retrieve measured reverse-splicing fitness.
0.00343
